I'd appreciate it if you could supply drug sensitivity score values for the items below.
system: Ovsaho; experiment: drug sensitivity score (DSS) from 5-point dose-response viability curve (DSS (area-under-curve based score)); higher = more sensitive (stronger growth inhibition or killing); extreme values may be limits of the assay; conditions: exposure time: 72 h; concentration range: 5 concentrations over 10,000-fold range
One number for each entry.

// worked examples, drug sensitivity score included
SMILES_REPR | drug sensitivity score
CNC(=O)c1cc(Oc2ccc(NC(=O)Nc3ccc(Cl)c(C(F)(F)F)c3)c(F)c2)ccn1 | 2
CNC(=O)[C@@H](NC(=O)[C@H](CC(C)C)[C@H](O)C(=O)NO)C(C)(C)C | 0
COc1ccc2[nH]cc(/C=C3\C(=O)Nc4ccc(NC(=O)CCN5CCCCC5)cc43)c2c1 | 4.6
O=C(CCCCCCC(=O)Nc1ccc([C@H]2O[C@@H](CSc3nc(-c4ccccc4)c(-c4ccccc4)o3)C[C@@H](c3ccc(CO)cc3)O2)cc1)NO | 2.3
COc1cccc2c1C(=O)c1c(O)c3c(c(O)c1C2=O)C[C@@](O)(/C(CO)=N/NC(=O)CCCCCN1C(=O)C=CC1=O)C[C@@H]3O[C@H]1C[C@H](N)[C@H](O)[C@H](C)O1 | 8.3

Hi, could you look up drug sensitivity score for each item in my list?
1. Cc1ncc(Cl)cc1NCc1ccc(C(=O)N[C@@H](CC2CCCC2)C(=O)NC2CC2)s1
2. CC(C)(O)CC(=O)NCCn1ccc2ncnc(Nc3ccc(Oc4cccc(C(F)(F)F)c4)c(Cl)c3)c21

Result ::
[0, 0.2]
